System: SW-620 colon
Assay: NCI tumour cell line growth inhibition, 48 h
Experimental endpoint: TGI (µM)
Use µM as the unit, but write only the number.

Molecular string | Unit symbol | TGI
CCc1cccc(CC)c1NC(=O)C1=C(C)NC(C)=C(C(=O)Nc2c(CC)cccc2CC)C1c1ccc2c(c1)OCO2 | µM | 31.5

We now examine a further molecule.
Given the entry O=C(CNc1ncco1)Nc1ccc(S(=O)(=O)c2ccc(NC(=O)CNc3ncco3)cc2)cc1 , report its measured TGI. 4.13

* * *

Test system: NCI/ADR-RES ovarian
Assay: NCI tumour cell line growth inhibition, 48 h; in the data active = GI50 below about 0.43 µM; inactive = the rest
Response enum: TRUE for active, FALSE for inactive

Compound | Label value
Cc1ccc(C2C3=C(N=c4s/c(=C/c5ccc(Br)cc5)c(=O)n42)c2ccc4ccccc4c2OCC3)cc1 (stereo unspecified) | FALSE
Cc1cc(C)cc(Nc2ccc([N+](=O)[O-])c(NCCN3CCOCC3)n2)c1 | TRUE
C(=C\c1nccc2c1[nH]c1ccccc12)/c1ccccc1 | FALSE
CC1SC(c2c(Cl)cccc2Cl)N(NC(=O)C(O)c2ccccc2)C1=O (stereo unspecified) | FALSE
CC(C)(C)OC(=O)CN1CCc2c(sc3ncnc(N/N=C/c4cccc5ccccc45)c23)C1 | FALSE

Note: attention shifts to another entry.
Record lookup: outcome of this test for CC(CN1CCN(CC(C)Nc2ccnc3cc(Cl)ccc23)CC1)Nc1ccnc2cc(Cl)ccc12 (stereo unspecified) ? FALSE

* * *

Tested on: SW-620 colon
Assay: NCI tumour cell line growth inhibition, 48 h
Each entry below carries its recorded TGI.

Molecule | Tested on | TGI
O=C(Nc1ccccc1O)c1ccc(CNC(=O)c2sccc2Nc2ccnc(C(F)(F)F)c2)cc1 | SW-620 colon | 20.4 µM
COc1ccc(NS(=O)c2ccccc2OC)cc1 (configuration not stated) | SW-620 colon | > 100 µM
C#C[C@]1(O)CC[C@H]2[C@@H]3CCC4=C/C(=N\OCCN(CC)CC)CC[C@]4(C)[C@H]3CC[C@@]21C | SW-620 colon | > 29.1 µM
CCN(CC)c1ccc2cc(C(=O)Nc3nc(C45CC6CC(CC(C6)C4)C5)cs3)c(=O)oc2c1 | SW-620 colon | > 100 µM
Cc1cc(C)n(C(=O)c2nn(-c3ccc(Cl)cc3)cc2O)n1 | SW-620 colon | > 100 µM

Given the entry COc1ccc(NC(=O)CC(=O)N/N=C/c2ccc(N(CCC#N)S(=O)(=O)c3ccccc3)cc2)cc1 , report its measured TGI. > 100 µM

Given the entry CS(=O)(=O)CCn1c(=O)c(Oc2ccc(F)cc2F)cc2cnc(NC3CCOCC3)nc21 , report its measured TGI. > 25 µM

Given the entry C[C@@H](Oc1ccc2[nH]nc(/C=C/c3cnn(CCO)c3)c2c1)c1c(Cl)cncc1Cl , report its measured TGI. > 100 µM

Given the entry CCOC(=O)C(=O)NCCCN1CCOCC1 , report its measured TGI. > 100 µM

Given the entry Cn1c2ccccc2c2nc3ccccc3c(Cl)c21 , report its measured TGI. > 100 µM

Given the entry c1ccc2cc(Cn3c[n+](Cc4ccc5ccccc5c4)c4ccccc43)ccc2c1 , report its measured TGI. 2.75 µM

Given the entry Brc1ccc2c(c1)C1C(CO2)C(c2ccccc2)=NN1c1ccccc1 (configuration not stated) , report its measured TGI. > 100 µM
